Experimental system: T1, KDM4A-DTD N931D (human, UniProt O75164 895-1011, N931D)
T1 sequence: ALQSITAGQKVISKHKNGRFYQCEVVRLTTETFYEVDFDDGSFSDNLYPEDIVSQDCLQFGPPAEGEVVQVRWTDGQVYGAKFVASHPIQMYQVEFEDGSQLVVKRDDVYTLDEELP
Protocol text: FP
pKd: −log10 of the molar value. Non-standard residues stand in square brackets, D forms with d. No end group written: not given here. Me2a = asymmetric dimethyl (on arginine); pT = C[C@@H](OP(=O)(O)O)[C@H](N)C(=O)O
Property measured: pKd

[1] RKQLATK(Me)AARKSAPAT (also: fluorescein label, end not given here) [H3K23me1 peptide (monomethylated H3K23), fluorescein-labelled]
[2] RKQLA[pT]K(Me3)AARKSAPAT (also: fluorescein label, end not given here) [H3T22phK23me3 peptide, fluorescein-labelled]
[3] RKQLATK(Me3)AAR(Me2a)KSAPAT (also: fluorescein label, end not given here) [H3K23me3R26me2a peptide, fluorescein-labelled]
Query :: Order the entries by their reported pKd, beginning at the minimum. Answer format: the labels, ordered as requested.
Result :: 1, 2, 3
(1: 4.51, 2: 4.73, 3: 5.22)
